Entry source: ChEMBL document CHEMBL3774320

Reported values: EC50 for Somatostatin receptor type 3 (Homo sapiens, UniProt P32745), one per item.

CC1(c2nc(-c3ccccc3)c[nH]2)Cc2c([nH]c3ccccc23)C(C2CCOCC2)N1 (stereo in doubt; 6d) : > 1000 nM

Asked: Test system Somatostatin receptor type 3 (Homo sapiens, UniProt P32745); read-out EC50; what value for c1ccc(-c2ccc(-c3c[nH]c([C@H]4Cc5c([nH]c6ccccc56)[C@@H](C5CCOCC5)N4)n3)cc2)cc1 ?
Given back: > 1000 nM

Asked: Can you look up EC50 on Somatostatin receptor type 3 (Homo sapiens, UniProt P32745) for c1ccc2c3c([nH]c2c1)C(C1CCOCC1)NC(c1nc(C24CC5CC(CC(C5)C2)C4)c[nH]1)C3 (stereo not drawn) ?
Given back: > 1000 nM
